- Tested on: human erythrocytes
- assay-summary: RBC hemolysis, compounds alone
- Format: cell-based
- measurement-parameters: 2% human erythrocyte (RBC) suspension, 24 h of incubation, read-out: increase of disintegration of the erythrocyte membrane (hemolysis)
- Experimental: The blood samples were centrifuged (3000 rpm, 10 min, 20 °C, Micro 22 R centrifuge, Hettich Zentrifugen, Tuttlingen, Germany) to separate erythrocytes from the plasma and washed three times with 0.9% saline (NaCl). […] The erythrocytes were suspended in 0.9% saline. As control of basal hemolysis, erythrocytes were incubated with 0.9% NaCl. For total hemolysis control erythrocytes were incubated with 2.0% v/v Triton X-100. Incubation with Triton X-100 and K4[Fe(CN)6] […]
measured-attribute: hemolysis at 24 h, 250 μg/L

// hemolysis at 24 h, 250 μg/L value for `CN(C)CCCN1c2ccccc2Sc2ccccc21` : > 59%

###

Provide the recorded CI (combination index), BuChE for the entries that follow.
- system-name: BuChE (Homo sapiens, UniProt P06276)
- Sequence (P06276 29-602): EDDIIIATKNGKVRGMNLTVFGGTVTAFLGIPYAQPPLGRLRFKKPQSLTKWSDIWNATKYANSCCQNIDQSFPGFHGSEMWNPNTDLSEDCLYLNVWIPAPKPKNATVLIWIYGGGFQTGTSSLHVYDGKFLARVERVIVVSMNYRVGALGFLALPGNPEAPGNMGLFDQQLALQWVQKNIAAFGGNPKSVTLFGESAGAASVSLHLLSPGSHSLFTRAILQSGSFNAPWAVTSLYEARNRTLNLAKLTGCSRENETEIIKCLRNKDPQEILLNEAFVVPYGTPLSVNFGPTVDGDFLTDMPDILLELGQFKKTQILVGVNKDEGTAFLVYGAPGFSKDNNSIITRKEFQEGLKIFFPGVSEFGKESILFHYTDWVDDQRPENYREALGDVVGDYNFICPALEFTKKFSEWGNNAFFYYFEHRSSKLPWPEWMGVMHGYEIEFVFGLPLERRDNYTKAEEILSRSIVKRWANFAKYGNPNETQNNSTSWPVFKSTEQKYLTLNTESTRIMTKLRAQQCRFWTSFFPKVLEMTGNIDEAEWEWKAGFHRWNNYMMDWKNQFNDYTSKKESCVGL
- assay-summary: Synergism of antipsychotics with donepezil/rivastigmine (binary mixtures), BuChE
- measurement-parameters: donepezil 20 μmol/L + antipsychotic at TPCmax; ComboSyn

# molecule, system-name, result
measured = [
    ("O=c1[nH]c2ccccc2n1C1CCN(CCCC(c2ccc(F)cc2)c2ccc(F)cc2)CC1 [Pimozide, pimozide]", "BuChE (Homo sapiens, UniProt P06276)", 0.76),
]

Could I get CI (combination index), BuChE for every one of these entries?
1. O=C(CCCN1CCC(O)(c2ccc(Cl)cc2)CC1)c1ccc(F)cc1
2. OC1(c2ccc(Cl)c(C(F)(F)F)c2)CCN(CCCC(c2ccc(F)cc2)c2ccc(F)cc2)CC1
3. O=C(CCCN1CCC(O)(c2ccc(Br)cc2)CC1)c1ccc(F)cc1
4. O=C(CCCN1CCC(n2c(O)nc3ccccc32)CC1)c1ccc(F)cc1

1: 0.77; 2: 1.03; 3: 0.70; 4: 0.60

For this molecule ( `OCCOCCN1CCN(C2=Nc3ccccc3Sc3ccccc32)CC1` ), measured CI (combination index), BuChE is 0.75

###

So I've got a bunch of compounds here, and I need their CI (combination index), BuChE values.
- system-name: BuChE (Homo sapiens, UniProt P06276)
- assay-summary: Synergism of antipsychotics with donepezil/rivastigmine (binary mixtures), BuChE;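 also: combination index derived by median-effect analysis of combined drug effects on the cholinesterase, with values below 1 meaning synergism, exactly 1 additivity and above 1 antagonism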
- measurement-parameters: rivastigmine 5 μmol/L + antipsychotic at TPCmax; ComboSyn

Known results for compounds:
# compound, system-name, CI (combination index), BuChE
measured = [
    ("O=C(CCCN1CCC(O)(c2ccc(Cl)cc2)CC1)c1ccc(F)cc1 [Haloperidol, haloperidol]", "BuChE (Homo sapiens, UniProt P06276)", 1.22),
    ("O=C(CCCN1CCC(O)(c2ccc(Br)cc2)CC1)c1ccc(F)cc1 [Bromperidol, bromperidol]", "BuChE (Homo sapiens, UniProt P06276)", 0.96),
    ("O=c1[nH]c2ccccc2n1C1CCN(CCCC(c2ccc(F)cc2)c2ccc(F)cc2)CC1 [Pimozide, pimozide]", "BuChE (Homo sapiens, UniProt P06276)", "> 2.50"),
    ("OC1(c2ccc(Cl)c(C(F)(F)F)c2)CCN(CCCC(c2ccc(F)cc2)c2ccc(F)cc2)CC1 [Penfluridol, penfluridol]", "BuChE (Homo sapiens, UniProt P06276)", 1.17),
]

// below: CI (combination index), BuChE requested for another compound
Query O=C(CCCN1CCC(n2c(O)nc3ccccc32)CC1)c1ccc(F)cc1 [Benperidol, benperidol] yields CI (combination index), BuChE of 1.00

###

- system-name: BuChE (Homo sapiens)
- assay-summary: Synergism of antipsychotics with donepezil/rivastigmine (binary mixtures), BuChE
- measurement-parameters: donepezil 2 μmol/L + antipsychotic at TPCmax; ComboSyn
Give measured CI (combination index), BuChE for each item. Keep answers brief.
Numbers only.

Hey, quick one: what's CI (combination index), BuChE for each of these?
1. O=C(CCCN1CCC(O)(c2ccc(Cl)cc2)CC1)c1ccc(F)cc1
2. OC1(c2ccc(Cl)c(C(F)(F)F)c2)CCN(CCCC(c2ccc(F)cc2)c2ccc(F)cc2)CC1
3. O=C(CCCN1CCC(n2c(O)nc3ccccc32)CC1)c1ccc(F)cc1
4. O=C(CCCN1CCC(O)(c2ccc(Br)cc2)CC1)c1ccc(F)cc1
5. O=c1[nH]c2ccccc2n1C1CCN(CCCC(c2ccc(F)cc2)c2ccc(F)cc2)CC1 [Pimozide, pimozide]
6. OCCOCCN1CCN(C2=Nc3ccccc3Sc3ccccc32)CC1

0.71
1.21
0.40
0.43
0.57
0.64

###

So I've got a bunch of compounds here, and I need their CI (combination index), BuChE values.
- system-name: UniProt P06276
- assay-summary: Synergism of antipsychotics with donepezil/rivastigmine (binary mixtures), BuChE
- measurement-parameters: rivastigmine 1 μmol/L + antipsychotic at TPCmax; ComboSyn
Numbers only.

Worked examples, 3 compounds total:
# smiles-string, CI (combination index), BuChE
data = [
    ("O=C(CCCN1CCC(O)(c2ccc(Cl)cc2)CC1)c1ccc(F)cc1", 1.03),
    ("OC1(c2ccc(Cl)c(C(F)(F)F)c2)CCN(CCCC(c2ccc(F)cc2)c2ccc(F)cc2)CC1", 1.13),
    ("O=C(CCCN1CCC(O)(c2ccc(Br)cc2)CC1)c1ccc(F)cc1", 0.92),
]

// CI (combination index), BuChE (UniProt P06276) for `O=C(CCCN1CCC(n2c(O)nc3ccccc32)CC1)c1ccc(F)cc1` = 1.00
